The values you see were collected from PubChem BioAssay (NCATS).

Tested on: CP268
Assay: qHTS profiling for inhibitors of Plasmodium falciparum proliferation (AID 504749); also: nearly all actives have a fitted effect of over 60% in size
Settings: P. falciparum in erythrocytes, SYBR Green DNA, 72 h; series mostly up to 12.8 µM
Inconclusive results are not listed. Calls of active or inactive are those of the source. Calls follow the shape of the dose curve; as a rule, active = well fitted inhibition curve with a large enough effect; inconclusive = small, poorly fitted or top-dose-only effect; inactive = flat fitted curve, though single readings scatter.
endpoint_name: outcome

Examples with their reported outcome follow.
- CC(=O)N[C@@H]1C(O)OC(CO)C(O)C1O (stereo not given in full): inactive
- O[C@@](CCN1CCCC1)(c1ccccc1)C1CCCCC1: inactive
- COc1ccccc1OC[C@H](O)CO: inactive
- N[C@@H]1C(O)OC(CO)C(O)C1O (stereo not given in full): inactive
- NC[C@@H]1O[C@H](O[C@@H]2[C@H](O[C@@H]3O[C@H](CO)[C@@H](O)[C@@H]3O)[C@@H](O)[C@@H](N)C[C@H]2N)[C@@H](N)[C@H](O)[C@@H]1O: inactive

Kindly review the next molecule as well.
Provide measured outcome value, entry: C[C@]12C=CC(=O)C=C1CCC1C2C(O)C[C@]2(C)C1CC[C@]2(O)C(=O)CO (stereo not given in full)
inactive

---

Target: Rap guanine nucleotide exchange factor 4 (Homo sapiens) (UniProt Q8WZA2)
Sequence (Q8WZA2 whole entry, looked up): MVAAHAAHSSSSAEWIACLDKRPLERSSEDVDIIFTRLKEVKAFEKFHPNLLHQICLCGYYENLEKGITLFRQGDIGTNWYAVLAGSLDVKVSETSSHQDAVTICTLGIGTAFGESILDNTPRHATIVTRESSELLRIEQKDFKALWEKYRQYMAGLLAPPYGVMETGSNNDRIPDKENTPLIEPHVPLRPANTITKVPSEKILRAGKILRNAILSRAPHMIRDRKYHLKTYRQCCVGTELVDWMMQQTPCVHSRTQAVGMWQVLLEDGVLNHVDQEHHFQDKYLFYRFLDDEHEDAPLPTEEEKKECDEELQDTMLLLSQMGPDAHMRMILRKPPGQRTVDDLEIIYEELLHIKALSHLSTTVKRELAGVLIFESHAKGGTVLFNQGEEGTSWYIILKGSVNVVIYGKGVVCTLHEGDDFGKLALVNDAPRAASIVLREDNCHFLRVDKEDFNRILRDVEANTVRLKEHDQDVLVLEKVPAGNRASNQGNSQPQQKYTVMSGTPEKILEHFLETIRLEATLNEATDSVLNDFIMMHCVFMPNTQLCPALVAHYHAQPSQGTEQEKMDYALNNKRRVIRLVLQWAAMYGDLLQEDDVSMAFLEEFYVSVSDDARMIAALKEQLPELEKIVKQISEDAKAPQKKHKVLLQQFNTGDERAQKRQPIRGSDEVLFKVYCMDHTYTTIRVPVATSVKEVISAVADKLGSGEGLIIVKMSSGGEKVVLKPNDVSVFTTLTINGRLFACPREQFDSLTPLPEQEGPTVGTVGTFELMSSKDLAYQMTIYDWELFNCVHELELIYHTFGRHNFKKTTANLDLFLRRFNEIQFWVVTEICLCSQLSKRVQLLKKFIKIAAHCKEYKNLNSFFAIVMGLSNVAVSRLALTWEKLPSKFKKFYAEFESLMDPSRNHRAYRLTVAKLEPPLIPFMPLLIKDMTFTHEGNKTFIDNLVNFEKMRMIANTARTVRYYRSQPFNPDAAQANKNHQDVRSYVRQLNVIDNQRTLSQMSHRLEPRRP
Experiment: Confirmatory qHTS for antagonist of cAMP-regulated guanine nucleotide exchange factor 4 (EPAC2) (AID 1645885); also: nearly all actives have a fitted effect of over 25% in size
Conditions: EPAC2 Rap1B-BODIPY-GDP exchange fluorescence, biochemical; series mostly up to 12.7 µM
Results filed as inconclusive are left out. Active and inactive are the calls of the source. Calls follow the shape of the dose curve; as a rule, active = well fitted inhibition curve with a large enough effect; inconclusive = small, poorly fitted or top-dose-only effect; inactive = no such curve, though single readings can be large or run the other way.
Outcome field: choose from TRUE (active), FALSE (inactive)

* CN(C)C(=S)Oc1ccccc1-c1ccccc1OC(=S)N(C)C | FALSE
* COc1ccc(NC(=O)Cn2cnc3sc(C)c(S(=O)(=O)N4CCOCC4)c3c2=O)c(OC)c1 | FALSE

Per the records of this test, what outcome belongs to Cc1ccsc1C(=O)OCC(=O)NCCNC(=O)COC(=O)c1sccc1C ?
FALSE

For CCOc1cccc(C(=O)N(Cc2ccc(F)cc2)Cc2ccco2)c1 , what call appears in the results of this test?
FALSE

Would you mind telling me which call this test gave O=[N+]([O-])c1cc(-c2ccccc2)cc([N+](=O)[O-])c1O ?
TRUE

I'd appreciate the recorded outcome for O=C(N/N=C/c1ccc(F)cc1)c1cc(-c2ccco2)nc2ccccc12 from this test.
FALSE

Could you please tell me the result logged for CC(C)(C)c1nc(-c2ccccc2)nc2c1OCCC2 in this assay?
FALSE

Kindly provide the recorded test outcome for the following compound: Oc1ccc(NCc2cccs2)cc1
FALSE

What did the test return for COCCn1c(=N)c(C(=O)NC2CCCC2)cc2c(=O)n3cc(C)ccc3nc21 ?
FALSE

Query: recorded result category for CCOC(=O)C1=C(C)N=C2SC=C(C)N2C1c1ccc(OC)cc1 (stereo not given) in this test
FALSE

# outcome recorded in this test, key = CS(=O)(=O)N1N=C(c2ccco2)CC1c1ccc(Cl)cc1Cl (stereo not given)
FALSE

Hey, what did the test say about COc1ccc(C(C[N+](=O)[O-])c2c(C)cc3ccccn23)c(OC)c1 (stereo not given) ?
FALSE

Dear colleague, could you share the recorded outcome for Cc1c(NC(=O)/C=C/c2cn(-c3ccccc3)nc2-c2ccccc2)c(=O)n(-c2ccccc2)n1C when you have a moment?
FALSE

What outcome does the record of this test show for Cc1[nH]n(-c2ccccc2)c(=O)c1C(c1cccc([N+](=O)[O-])c1O)c1c(C)[nH]n(-c2ccccc2)c1=O ?
FALSE

What outcome does the record of this test show for CCCC1C2CN(C(C)C)CC=C2C(C#N)=C(N)C1(C#N)C#N (stereo not given) ?
TRUE

Could you check what this test reported for CCC(C(=O)Nc1cc(OC)ccc1OC)n1nc(-c2ccccc2)c2c(c1=O)CCCC2 (stereo not given) ?
FALSE

Which result was noted for this compound in the test: Nc1ccc2ccccc2c1C(=O)c1ccccc1
FALSE

---

Test system: Dd2
Test: qHTS profiling for inhibitors of Plasmodium falciparum proliferation (AID 504749); also: nearly all actives have a fitted effect of over 60% in size
Conditions: P. falciparum in erythrocytes, SYBR Green DNA, 72 h; series mostly up to 12.8 µM
Records with an inconclusive call do not appear. The source made the active and inactive calls. The call rests on the fitted dose curve; in most records, active means well fitted inhibition curve with a large enough effect; inconclusive means small, poorly fitted or top-dose-only effect; inactive means flat fitted curve, though single readings scatter.
Bench note: report the call from active, inactive

Would you please look over these solved cases?
• CCC(=O)O[C@@H]1[C@H](C)O[C@H](O[C@H]2[C@@H](N(C)C)[C@H](O)[C@@H](O[C@@H]3[C@@H](CC=O)C[C@@H](C)[C@@H](O)/C=C\C=C/C[C@@H](C)OC(=O)C[C@@H](OC(=O)CC)[C@H]3OC)O[C@H]2C)C[C@]1(C)O = active
• C[C@@]12C=CC(=O)C=C1CCC1C3CC(O)[C@@](O)(C(=O)CO)[C@]3(C)CC(O)[C@]12F (stereo partly specified) = inactive
• CC1(C)SC2C(N3C(=O)C(c4ccccc4)NC3(C)C)C(=O)N2C1C(=O)O (stereo unspecified) = inactive
• COc1ccc(-c2cc(=O)c3c(O)cc(O[C@H]4OC(COC5OC(C)C(O)C(O)[C@H]5O)C(O)C(O)C4O)cc3o2)cc1O (stereo partly specified) = inactive
• CO[C@]1(NC(=O)C2SC(=C(C(N)=O)C(=O)O)S2)C(=O)N2C(C(=O)O)=C(CSc3nnnn3C)CS[C@H]21 (stereo partly specified) = inactive
• CCC(CCC(C)C1CCC2C3CC=C4CC(O)CC[C@@]4(C)C3CC[C@@]12C)C(C)C (stereo partly specified) = inactive
• NC[C@@H]1O[C@H](O[C@H]2[C@H](O)[C@H](O[C@@H]3O[C@H](CO)[C@@H](O)[C@H](N)[C@@H]3O)[C@@H](N)C[C@H]2N)[C@@H](O)[C@H](O)[C@@H]1O = inactive
• COc1ccc(CC(N)C(=O)NC2C(CO)OC(n3cnc4c(N(C)C)ncnc43)C2O)cc1 (stereo unspecified) = active
• CN1C(=O)C[C@H](c2ccccc2)C1=O = inactive
• Nc1nc2ncc(CNc3ccc(C(=O)NC(CCC(=O)O)C(=O)O)cc3)nc2c(=O)[nH]1 (stereo unspecified) = inactive

Hi, do you know how CC(=O)OC1CCC2C3CCc4cc(O)ccc4C3CCC12C (stereo unspecified) came out in this test?
inactive

# outcome recorded in this test, key = CN1CC(=O)N=C1N
inactive

---

Assay: qHTS profiling for inhibitors of Plasmodium falciparum proliferation (AID 504749); also: nearly all actives have a fitted effect of over 60% in size;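 as to activity, negative = inhibition: 0% = DMSO vehicle and full inhibition = artemisinin control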
Details: P. falciparum in erythrocytes, SYBR Green DNA, 72 h; at 28.7 µM (top of the series); parasite line A
Inconclusive results are not listed.
endpoint_name: activity, negative = inhibition (%)
Note: unit % is implicit; provide only the numeric part.

Example results:
- C[C@@]12C=CC(=O)C=C1CCC1C3CC(O)[C@@](O)(C(=O)CO)[C@]3(C)CC(O)[C@]12F (stereo partly drawn): 5.41
- CN1CC(=O)N=C1N: 1.94
- CCOC(=O)[C@H](CCc1ccccc1)N[C@@H](C)C(=O)N1[C@H](C(=O)O)C[C@H]2CCC[C@@H]21: 14.3
- CC1(C)OC2CC(=O)OC[C@@]23C1CC(=O)[C@]1(C)C3CC[C@@]2(C)C(c3ccoc3)OC(=O)C3O[C@@]321 (stereo partly drawn): -0.282
- CCN[C@@H]1C[C@H](N)[C@H](O[C@H]2OC(CN)=CC[C@H]2N)[C@@H](O)[C@H]1O[C@H]1OC[C@@](C)(O)[C@@H](NC)[C@@H]1O: 6.1
- Nc1nc(NC2CC2)c2ncn([C@H]3C=C[C@@H](CO)C3)c2n1: 8.14
- CC(=O)[C@]1(O)CCC2C3C=C(Cl)C4=CC(=O)C5CC5[C@@]4(C)C3CC[C@]21C (stereo partly drawn): 6.27

Please turn your attention to the following entry.
Input C=Cc1c(C)/c2[n-]/c1=C\c1[n-]c(c(CC)c1C)/C=c1\[n-]c3c(c1C)C(=O)C(C(=O)[O-])C=3c1[n-]c(c(C)c1CCC(=O)[O-])\C=2.[Cu].[Na+].[Na+] (stereo not drawn) , output reported activity, negative = inhibition.
-17.5

---

Tested on: PAD
Experiment: qHTS profiling for inhibitors of Plasmodium falciparum proliferation (AID 504749); also: nearly all actives have a fitted effect of over 60% in size
Conditions: P. falciparum in erythrocytes, SYBR Green DNA, 72 h; series mostly up to 12.8 µM
Inconclusive results are not listed. The source made the active and inactive calls. Calls come from the whole dose curve; as a rule, active = well fitted inhibition curve with a large enough effect; inconclusive = small, poorly fitted or top-dose-only effect; inactive = flat fitted curve, though single readings scatter.
Respond only with the outcome that fits, drawn from active, inactive

Worked examples follow.
- CC1(C)S[C@@H]2[C@H](NC(=O)[C@@H](N)c3ccccc3)C(=O)N2[C@H]1C(=O)O[C@H]1OC(=O)c2ccccc21: inactive
- C=C1c2c(Cl)ccc(O)c2C(O)=C2C(=O)[C@@]3(O)C(O)=C(C(N)=O)C(=O)[C@@H](N(C)C)[C@@H]3[C@@H](O)[C@H]12: inactive
- CN[C@H]1[C@H](O)[C@@H](O[C@@H]2[C@H](O)[C@@H](O[C@H]3OC(CN)=CC[C@H]3N)[C@@H](N)C[C@H]2N)OC[C@@]1(C)O: inactive
- CC=C(/C(=C/C)c1ccc(O)cc1)c1ccc(O)cc1: inactive
- NC(CCC(=O)N[C@@H](CS)C(=O)NCC(=O)O)C(=O)O (some centres not stated): active

I'd appreciate the recorded outcome for COCC(=O)Nc1c(I)c(C(=O)NC[C@@H](O)CO)c(I)c(C(=O)N(C)C[C@@H](O)CO)c1I from this test.
inactive

Dear all, I need the recorded test outcome for OCC1O[C@H](OC2C(CO)O[C@@](O)(CO)C2O)C(O)C(O)C1O (some centres not stated) , thank you.
inactive
